- system_under_test: VPS35 (Mus musculus, UniProt Q9EQH3+Q9QZ88)
- test_context: Neuro2a cells, 10 µM, 48 h, WB
property_label: VPS35 levels

N=C(N)SCc1cccc(CSC(=N)N)c1
increased VPS35 levels
NC(N)=N/N=C/c1ccc(/C=N/N=C(N)N)s1
increased VPS35 levels
NC(N)=N/N=C/c1cccc(/C=N/N=C(N)N)c1 [compound 2a, phenyl-1,3-bis-guanylhydrazone]
increased VPS35 levels

The values you see were collected from paper PMC7395176.
